Where do these numbers come from? They come from ChEMBL document CHEMBL3885861.

- Organism: Rattus norvegicus
- METHOD SUMMARY: Open TG-GATES - Regimen: Daily Repeat
- Type: toxicity, organism-based, Sprague-Dawley
- Set-up: regimen Daily Repeat, gender Male, age 6 weeks
- EXPERIMENTAL PARAMETERS: in vivo, po, 0 mg/kg, 72 h, tissue Plasma, route gavage, dose level Control, time 3 day
Some compounds, each annotated with its measured BUN.
I only need the number, in mg/dL, no unit after it.

Solved entries:
{"columns": ["COMPOUND", "REPORTED"],
 "data": [
  ["O=P1(N(CCCl)CCCl)NCCCO1 (centres undefined) [CYCLOPHOSPHAMIDE ANHYDROUS]", 15.4],
  ["COc1ccc(Cl)cc1C(=O)NCCc1ccc(S(=O)(=O)NC(=O)NC2CCCCC2)cc1 [GLYBURIDE]", 15.2],
  ["O=C1CN(/N=C/c2ccc(-c3ccc([N+](=O)[O-])cc3)o2)C(O)=N1 [DANTROLENE]", 19.2],
  ["Cn1cnc([N+](=O)[O-])c1Sc1ncnc2nc[nH]c12 [AZATHIOPRINE]", 16.6],
  ["Cc1cccc(Nc2cc(Cl)nc(SCC(=O)O)n2)c1C [PIRINIXIC ACID]", 15.8],
  ["CS(=O)(=O)Nc1ccc([N+](=O)[O-])cc1Oc1ccccc1 [NIMESULIDE]", 17.6]
]}

**Query** I'd like to know its BUN. The compound in question is Cc1cnc(NC(=O)C2=C(O)c3ccccc3S(=O)(=O)N2C)s1 [MELOXICAM]
**Result** 18

**Query** Fill in: BUN of C=CCO [ALLYL ALCOHOL] is ___
**Result** 16.2

**Query** Form field: reported BUN of COc1ccc(O)c(C(C)(C)C)c1.COc1ccc(O)cc1C(C)(C)C [BUTYLATED HYDROXYANISOLE]
**Result** 12.8
